src = ChEMBL document CHEMBL1146688

For each entry below, report its half-life value.
protocol_description: Plasma half life in rat at oral dose 2.8 mg/mk body weight
Type: ADME, organism-based
Write the quantity with the unit trailing the number.

>>> recorded_result("CC1(C)C(c2cccc(Cl)c2)[C@H]1C(=O)NC(=N)N (single isomer, unassigned)")
"5 h"

Reported half-life, compound Cc1nc(N)[nH]c1[C@@H]1C(c2cccc(Cl)c2)C1(C)C (single isomer, unassigned) : ____
5 h

----------
protocol_description: Oral bioavailability in rat (dose 2.8 mg/kg p.o.)
Type: ADME, organism-based
condition_description: in vivo
observation_type: bioavailability
Write the quantity with the unit trailing the number.

>>> recorded_result("Cc1nc(N)[nH]c1[C@@H]1C(c2cccc(Cl)c2)C1(C)C (single isomer, unassigned)")
"26%"

We now examine a further compound.
Reported bioavailability, compound CC1(C)C(c2cccc(Cl)c2)[C@H]1C(=O)NC(=N)N (single isomer, unassigned) : ____
26%
